readout kind: melting point

Enquiry: Give the measured melting point for N=C(Nc1ccccn1)Nc1ccccn1 [Compound 4, 1,3-di(pyridin-2-yl)guanidine]
Return: 140 to 142 °C

###

target: BACE1 enzyme (Homo sapiens, UniProt P56817); construct: purchased Sigma-Aldrich CS0010; test: BACE1 FRET-based inhibitory activity assay (Sigma-Aldrich kit CS0010); assay type: biochemical; settings: BACE1 FRET assay, pH 4.5, 37°C, 75 min; read-out: IC50
Sequence (P56817 46-501): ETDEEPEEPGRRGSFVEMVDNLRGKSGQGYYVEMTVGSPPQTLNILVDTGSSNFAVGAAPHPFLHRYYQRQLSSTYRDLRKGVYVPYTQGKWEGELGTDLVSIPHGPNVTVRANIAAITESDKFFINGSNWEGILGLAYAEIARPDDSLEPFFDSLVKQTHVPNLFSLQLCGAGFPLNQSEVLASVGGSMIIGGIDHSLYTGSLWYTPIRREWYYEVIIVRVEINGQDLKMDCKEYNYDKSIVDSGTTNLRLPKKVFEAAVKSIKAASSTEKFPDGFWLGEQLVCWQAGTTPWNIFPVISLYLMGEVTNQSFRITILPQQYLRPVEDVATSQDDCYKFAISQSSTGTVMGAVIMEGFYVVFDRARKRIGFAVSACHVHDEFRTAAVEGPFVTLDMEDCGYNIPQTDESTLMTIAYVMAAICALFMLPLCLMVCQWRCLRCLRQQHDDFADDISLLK
pIC50: −log10 of the molar value.
readout kind: pIC50

{"smiles str": "N=C(Nc1ccc(Br)cc1)Nc1ccc(Br)cc1", "measured number": 3.49}

[P] N=C(Nc1cc(C(F)(F)F)cc(C(F)(F)F)c1)Nc1cc(C(F)(F)F)cc(C(F)(F)F)c1
[Q] N=C(Nc1ccccc1F)Nc1ccccc1F
Enquiry: Hey, which is lower on measured pIC50, P or Q ? // respond with label for picked entry
Return: P
(P: 3.64, Q: 4.07)

[A] N=C(Nc1ccc2ncccc2c1)Nc1ccc2ncccc2c1
[B] N=C(Nc1ccc(F)cc1)Nc1ccc(F)cc1
[C] N=C(Nc1ccccn1)Nc1ccccn1
Enquiry: Order the 3 compounds from highest to lowest pIC50. Answer format: list of labels, ordered as asked.
Return: A, C, B
